Below, each entry is listed alongside its reported normalised viability.
Tested on: DU-4475
Experiment: normalised viability (% of control), CellTiter-Blue; higher = more viable cells (about 100 = DMSO control)
Details: 3 nM; incubation time: 72 h
Recorded endpoint: normalised viability (%)

{"Compound": "Cc1sc2c(c1C)C(c1ccc(Cl)cc1)=N[C@@H](CC(=O)OC(C)(C)C)c1nnc(C)n1-2 [(+)JQ1]", "Unit descriptor": "%", "Reported measurement": 104}
{"Compound": "CC1(C)CNc2cc(NC(=O)c3cccnc3NCc3ccncc3)ccc21", "Unit descriptor": "%", "Reported measurement": 85.6}
{"Compound": "C[C@]1(O)C[C@@H](c2nc(-c3ccc4ccc(-c5ccccc5)nc4c3)c3c(N)nccn32)C1", "Unit descriptor": "%", "Reported measurement": 92.7}
{"Compound": "Oc1ncnc2[nH]ncc12", "Unit descriptor": "%", "Reported measurement": 104}
{"Compound": "Cn1cc(C2=Nc3cc(NC(=O)C(N)C4CCCCC4)cc4c3C2=CNNC4=O)cn1 (stereo not given)", "Unit descriptor": "%", "Reported measurement": 89.6}
